# TARGET SYSTEM: Oxysterols receptor LXR-beta (Homo sapiens)
# Sequence (P55055 whole entry): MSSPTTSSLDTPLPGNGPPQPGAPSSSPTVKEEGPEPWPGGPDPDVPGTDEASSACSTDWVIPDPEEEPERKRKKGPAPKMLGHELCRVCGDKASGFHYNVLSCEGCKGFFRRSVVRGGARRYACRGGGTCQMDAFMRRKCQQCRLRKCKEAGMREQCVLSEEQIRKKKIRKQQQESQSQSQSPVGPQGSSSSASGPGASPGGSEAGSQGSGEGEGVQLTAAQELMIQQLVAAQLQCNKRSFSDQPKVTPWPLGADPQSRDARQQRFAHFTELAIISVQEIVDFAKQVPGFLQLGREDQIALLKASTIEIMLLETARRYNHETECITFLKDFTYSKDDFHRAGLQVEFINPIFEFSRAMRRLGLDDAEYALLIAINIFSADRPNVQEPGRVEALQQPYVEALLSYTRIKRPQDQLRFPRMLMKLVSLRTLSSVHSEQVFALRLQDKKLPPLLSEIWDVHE
# TEST METHOD NOTES: Antagonist activity at human LXRbeta expressed in HEK293 cells assessed as inhibition of beta-galactosidase activity by luciferase reporter gene assay
pIC50: −log10 of the molar value.
Each record here notes measured pIC50.

Below, 5 compounds whose answers are already recorded.
[
  {
    "CHEMICAL STRING": "COc1ccc(CCc2ccc(N3C(=O)c4c(Cl)c(Cl)c(Cl)c(Cl)c4C3=O)cc2)cc1OC",
    "pIC50": "< 4.52"
  },
  {
    "CHEMICAL STRING": "COc1ccc(CCc2ccc(N3C(=O)c4ccccc4C3=O)cc2)cc1",
    "pIC50": "< 4.52"
  },
  {
    "CHEMICAL STRING": "O=C1c2ccccc2C(=O)N1c1ccc(/C=C/c2ccccc2)cc1",
    "pIC50": "< 4.52"
  },
  {
    "CHEMICAL STRING": "O=C1c2c(Cl)c(Cl)c(Cl)c(Cl)c2C(=O)N1c1cccc(CCc2cccc(O)c2)c1",
    "pIC50": "< 4.52"
  },
  {
    "CHEMICAL STRING": "O=C1c2c(Cl)c(Cl)c(Cl)c(Cl)c2C(=O)N1c1ccc(CCc2cccc(O)c2)cc1",
    "pIC50": "< 4.52"
  }
]

[Q] # lookup: pIC50 of `O=C1c2c(Cl)c(Cl)c(Cl)c(Cl)c2C(=O)N1c1cccc(CCc2ccc(O)cc2)c1`
[A] < 4.52

[Q] # lookup: pIC50 of `O=C1c2c(Cl)c(Cl)c(Cl)c(Cl)c2C(=O)N1c1ccc(CCc2ccc(O)c(O)c2)cc1`
[A] < 4.52

[Q] # lookup: pIC50 of `O=C1c2c(Cl)c(Cl)c(Cl)c(Cl)c2C(=O)N1c1ccc(/C=C/c2ccccc2)cc1`
[A] < 4.52

[Q] # lookup: pIC50 of `O=C1c2ccccc2C(=O)N1c1cccc(CCc2ccc(O)c(O)c2)c1`
[A] 5.12

[Q] # lookup: pIC50 of `O=C1c2ccccc2C(=O)N1c1ccc(CCc2ccc(O)cc2)cc1`
[A] < 4.52

###

# TARGET SYSTEM: Oxysterols receptor LXR-beta (Homo sapiens)
# TEST METHOD NOTES: Antagonist activity at human LXRbeta expressed in HEK293 cells assessed as inhibition of beta-galactosidase activity by luciferase reporter gene assay
ASSAY READOUT: IC50 (µM)
Return type: number; implicit unit µM.

[Q] # query: IC50 | item `O=C1c2c(Cl)c(Cl)c(Cl)c(Cl)c2C(=O)N1c1ccccc1CCc1ccc(O)c(O)c1` | system: Oxysterols receptor LXR-beta (Homo sapiens)
[A] 17

[Q] # query: IC50 | item `O=C1c2c(Cl)c(Cl)c(Cl)c(Cl)c2C(=O)N1c1cccc(CCc2ccc(O)c(O)c2)c1` | system: Oxysterols receptor LXR-beta (Homo sapiens)
[A] 21

###

# TEST METHOD NOTES: Inhibition of Saccharomyces sp. alpha-glucosidase assessed as p-nitrophenol release
ASSAY READOUT: pIC50
The value called pIC50 is obtained by taking minus log10 of the concentration in mol/L.

[
  {
    "CHEMICAL STRING": "COc1ccc(/C=C/c2ccc(N3C(=O)c4c(Cl)c(Cl)c(Cl)c(Cl)c4C3=O)cc2)cc1OC",
    "pIC50": 4.40
  }
]

[Q] # lookup: pIC50 of `O=C1c2c(Cl)c(Cl)c(Cl)c(Cl)c2C(=O)N1c1cccc(CCc2ccc(O)c(O)c2)c1`
[A] 4.64

[Q] # lookup: pIC50 of `O=C1c2c(Cl)c(Cl)c(Cl)c(Cl)c2C(=O)N1c1cccc(/C=C/c2ccccc2)c1`
[A] 4.51

[Q] # lookup: pIC50 of `COc1ccc(CCc2cccc(N3C(=O)c4c(Cl)c(Cl)c(Cl)c(Cl)c4C3=O)c2)cc1`
[A] 4.31

[Q] # lookup: pIC50 of `O=C1c2c(Cl)c(Cl)c(Cl)c(Cl)c2C(=O)N1c1ccc(CCc2cccc(O)c2)cc1`
[A] 4.68

[Q] # lookup: pIC50 of `O=C1c2ccccc2C(=O)N1c1ccc(/C=C/c2ccccc2)cc1`
[A] 4.05
